Tested on: U251 CNS
Experiment Notes: NCI-60 one-dose screen, 48 h (100 = growth as untreated, 0 = no growth, -100 = all killed)
Recorded Conditions: 10 µM unless noted
Compounds without any hit were thinned out: in the full panel of roughly 83,000, 20% have a hit.
Recorded growth, one value per entry.
Assay Endpoint: growth (%)

Compound	Target Or System	Scale Unit	Value Reported
CCCCCCCCCCCCCCCCCCOc1cccc(CC(=O)OCC[N+](CC)(CC)CC)c1	U251 CNS	%	37.6
Cc1ccc(-c2nc3nc(-c4ccc(F)cc4)nc(N4CCCNCC4)c3o2)cc1	U251 CNS	%	-93.2
Cc1c(CC(=O)OCCO)cc(-c2ccc(Cl)cc2)n1-c1ccccc1	U251 CNS	%	91.7
O=C(/C=C\c1ccc(Cl)c(Cl)c1)c1ccccc1	U251 CNS	%	85.3
CCCCCCCCCCCCCCCCCCn1cc(COc2ccc(C=O)cc2)nn1	U251 CNS	%	107
O=C(/C=C/c1ccc([N+](=O)[O-])cc1)c1ccccc1	U251 CNS	%	80.8
COc1ccc(Oc2nc(Nc3ccc(N4CCOCC4)cc3)ncc2NC(=O)c2cccc(C(F)(F)F)c2)cc1	U251 CNS	%	69.3
O=C(Nc1ncc(Cc2cccc(C(F)(F)F)c2)s1)c1ccc(-n2cnnn2)cc1	U251 CNS	%	64.4
COc1ccc(-c2nnc3n(C)c(=O)c4ccccc4n23)cc1O	U251 CNS	%	15.1
COc1cccc(NC(=O)c2sc3nc(C)c(C(O)c4ccccc4)cc3c2N)c1 (stereo not given)	U251 CNS	%	8.92

###

Recorded growth, one value per entry.
Tested on: COLO 205 colon
Experiment Notes: NCI-60 one-dose screen, 48 h (100 = growth as untreated, 0 = no growth, -100 = all killed)
Recorded Conditions: 10 µM unless noted
This is part of a sample that, as a whole, favours compounds with a hit. Of some 83,000 tested, about 20% had one in any assay. Active and inactive are the calls of the source. Rule for the calls: active = growth percent below 10; inactive = the rest.

Compound	Target Or System	growth
COc1ccc(C(c2cc(OC)c(OC)c(OC)c2)n2ccnc2)cc1O (stereo not given)	COLO 205 colon	-9.99% (active)
CCOC(=O)C(=CCC(C)C)C(=O)OCC	COLO 205 colon	116% (inactive)
COc1ccc(-c2ccc(-c3ccc(C(=N)N)cn3)s2)cc1Cl	COLO 205 colon	-51.7% (active)
CCOC(=O)c1cnn(CC(O)CC)c1NC(=O)NCc1ccccc1C(F)(F)F (stereo not given)	COLO 205 colon	114% (inactive)
Cc1nc2sc(C(=O)Nc3cccc4ccccc34)c(N)c2cc1C(=O)/C=C/c1ccccc1	COLO 205 colon	-15% (active)
COc1ccc(Cl)cc1Nc1nc(C(F)(F)F)ccc1C(=O)N/N=C/c1ccc(N(C)C)cc1	COLO 205 colon	92.2% (inactive)
Cc1cccc(-c2nnc(SCC(=O)Nc3ncc(Cc4ccccc4)s3)n2N2C(=O)CSC2=S)c1	COLO 205 colon	66.6% (inactive)
CN1Cn2c(ccc2C(F)(F)F)C(=O)CS1(=O)=O	COLO 205 colon	116% (inactive)
N#C/C(=C\c1ccccc1Cl)c1cc2ccccc2[nH]1	COLO 205 colon	105% (inactive)
COC(=O)c1c2c(c(C)[n+]([O-])c1C)C(=O)C(NCCN1CCOCC1)=CC2=O	COLO 205 colon	6.73% (active)
CCN(c1cc(-c2ccc(CN3CCC(/C=C/S(=O)(=O)c4ccccc4)CC3)cc2)cc(C(=O)NCc2c(C)cc(C)[nH]c2=O)c1C)C1CCOCC1	COLO 205 colon	99.8% (inactive)
CN(C)C1CCN(C(=O)c2ccc(NC(=O)Nc3ccc(-c4nc(N5CCOCC5)c5cccn5n4)cc3)cc2)CC1	COLO 205 colon	-3.31% (active)
O=C1N=c2ccccc2=C1c1sc(=S)n(C2CC(=O)N(c3ccc(Cl)cc3)C2=O)c1O (stereo not given)	COLO 205 colon	118% (inactive)
COc1cc(/C=C2/C=C(c3ccc(C(C)(C)C)cc3)N(CCc3ccc(S(N)(=O)=O)cc3)C2=O)cc(OC)c1OC	COLO 205 colon	34.3% (inactive)
CCCCCCCCCCCCC[C@H](O)C[C@H](O)[C@H](C)N	COLO 205 colon	92.2% [1.25 µM] (inactive)
Clc1nccc2c(-c3csc(-c4c[nH]c5ccc(Br)cc45)n3)c[nH]c12	COLO 205 colon	7.99% (active)
C=CCN1C=CC(=O)[C@H](O[Si](C)(C)C(C)(C)C)[C@@H]1/C=C/c1ccccc1	COLO 205 colon	-64% [100 µM] (active)
C=C1C(=O)O[C@H]2[C@H]1CC/C(COC(=O)NCc1ccc(Cn3c(=O)sn(CCCI)c3=O)cc1)=C\CC[C@@]1(C)O[C@@H]21	COLO 205 colon	-45.8% (active)
COc1ccc2nc3cc(Cl)ccc3c(NCCCNCCC(C)O)c2c1 (stereo not given)	COLO 205 colon	-77.7% (active)
COc1cc(NS(=O)(=O)C(C)C)cc(-c2cc(-c3ccc(N4CCNCC4)cc3)cnc2N)c1	COLO 205 colon	84.4% (inactive)
